The following compounds are shown together with reported EC50 at 1 h values.
method notes: Cytotoxicity colorimetric assay, HepG2
Format: cell-based, human
test conditions: human, HepG2 cells, one hour in serum-free media
Your answer should be a plain number; it is taken to be in µg/mL.

Solved cases (2 shown):
smiles	unit info	EC50 at 1 h
COc1cc(OC)c(C(=O)N[C@H]2CC[C@@H](NC(=O)c3cc(C(=O)N[C@H]4CC[C@@H](NC(=O)c5cc(C(=O)NCCN)c(OC)cc5OC)CC4)c(OC)cc3OC)CC2)cc1C(=O)NCCN	µg/mL	1130
COc1ccc(NC(=O)[C@H](CCCCN)NC(=O)c2cc(NC(=O)[C@H](CCCCN)NC(=O)c3cc(NC(=O)[C@H](CCCCN)NC(=O)c4cc(NC(=O)[C@@H](N)CCCCN)ccc4OC)ccc3OC)ccc2OC)cc1C(=O)Nc1cccc(C(=O)O)c1	µg/mL	1000

Please examine the following record next.
Asked: So what's the measured EC50 at 1 h for this one? COc1cc(OC)c(C(=O)N[C@H]2CC[C@H](NC(=O)c3cccc(C(=O)N[C@H]4CC[C@H](NC(=O)c5cc(C(=O)NCCN)c(OC)cc5OC)CC4)c3)CC2)cc1C(=O)NCCN
Given back: 1090

---

The following molecules are shown together with reported EC50 values.
Test system: UFH
method notes: FXa amidolytic assay (Example 10), UFH
test conditions: read-out: Heparin FXa uM EC50; UFH 0.03 units/mL; human antithrombin, bovine Factor Xa
Your answer should be a plain number; it is taken to be in µM.

Solved cases (3 shown):
smiles	readout type	numeric value
COc1cc(OC)c(C(=O)N[C@H]2CC[C@@H](NC(=O)c3ccc(OCCCCCNC(=N)N)cc3OCCCCCNC(=N)N)CC2)cc1C(=O)N[C@H]1CC[C@@H](NC(=O)c2ccc(OCCCCCNC(=N)N)cc2OCCCCCNC(=N)N)CC1	EC50	0.164
COc1ccc(NC(=O)[C@H](CCCCN)NC(=O)c2cc(NC(=O)[C@H](CCCCN)NC(=O)c3cc(NC(=O)[C@H](CCCCN)NC(=O)c4cc(NC(=O)[C@H](CCCCN)NC(=O)c5c[nH]c6ccccc56)ccc4OC)ccc3OC)ccc2OC)cc1C(N)=O	EC50	0.213
CNCNC(=O)c1cccc(C(=O)N[C@H]2CC[C@H](NC(=O)c3cc(C(=O)N[C@H]4CC[C@H](NC(=O)c5cccc(C(=O)NCCN)c5)CC4)c(OC)cc3OC)CC2)c1	EC50	15.5

Asked: So what's the measured EC50 for this one? COC(=O)c1ccc(C(=O)N[C@@H](CCCCN)C(=O)Nc2ccc(OC)c(C(=O)N[C@@H](CCCCN)C(=O)Nc3ccc(OC)c(C(=O)N[C@@H](CCCCN)C(=O)Nc4ccc(OC)c(C(=O)N[C@@H](CCCCN)C(=O)Nc5ccc(OC)c(C(N)=O)c5)c4)c3)c2)cc1
Given back: 0.189

---

System: unfractionated heparin (UFH)
method notes: aPTT clotting assay, UFH 0.2 U/mL in plasma (Example 7)
Type: biochemical
test conditions: UFH 0.2 U/mL in plasma
Experimental: aPTT clotting Assay. Unfractionated heparin was mixed with plasma at a final concentration of 0.2 U/mL. […] The ACL Elite Hemostasis analyzer (Beckman Coulter™) was used to add aPTT reagent (HemosIL SynthASil) to supplemented plasma. Clotting was initiated by addition of CaCl2 and time to clot was recorded.
readout type: UFH (aPTT) EC50 (µg/mL)
Your answer should be a plain number; it is taken to be in µg/mL.

Asked: Look up UFH (aPTT) EC50 with unfractionated heparin (UFH) for this compound: COc1ccc(NC(=O)[C@H](CCCCN)NC(=O)c2cc(NC(=O)[C@H](CCCCN)NC(=O)c3cc(NC(=O)[C@H](CCCCN)NC(=O)c4cc(NC(=O)[C@@H](N)CCCCN)ccc4OC)ccc3OC)ccc2OC)cc1C(=O)N[C@@H](CCC(=O)O)C(=O)O
Given back: 4.26

---

Tested on: unfractionated heparin (UFH)
method notes: aPTT clotting assay, UFH 0.2 U/mL in plasma (Example 7)
Assay type: biochemical
test conditions: UFH 0.2 U/mL in plasma
The following molecules are shown together with reported UFH (aPTT) EC50 values.
Your answer should be a plain number; it is taken to be in µg/mL.

Solved cases (5 shown):
smiles	tested system	UFH (aPTT) EC50, µg/mL
COc1ccc(NC(=O)[C@@H](CCCNC(=N)N)NC(=O)c2cc(NC(=O)[C@@H](CCCNC(=N)N)NC(=O)c3cc(NC(=O)[C@@H](CCCNC(=N)N)NC(=O)c4cc(NC(C)=O)ccc4OC)ccc3OC)ccc2OC)cc1C(=O)NCCCCCN	unfractionated heparin (UFH)	2.08
COc1ccc(NC(=O)[C@H](CCCCN)NC(=O)c2cc(NC(=O)[C@H](CCCCN)NC(=O)c3cc(NC(=O)[C@H](CCCCN)NC(=O)c4ccc(NC(=O)[C@@H](N)CCCCN)cc4OC)ccc3OC)ccc2OC)cc1C(N)=O	unfractionated heparin (UFH)	2.47
COc1ccc(NC(=O)[C@@H](CCCNC(=N)N)NC(=O)c2cc(NC(=O)[C@@H](CCCNC(=N)N)NC(=O)c3cc(NC(=O)[C@@H](CCCNC(=N)N)NC(=O)c4cc(NC(=O)[C@H](N)CCCNC(=N)N)ccc4OC)ccc3OCCNC(=N)N)ccc2OCCNC(=N)N)cc1C(N)=O	unfractionated heparin (UFH)	5.79
COc1ccc(NC(=O)[C@H](CCCCN)NC(=O)c2cc(NC(=O)[C@H](CCCCN)NC(=O)c3cc(NC(=O)[C@H](CCCCN)NC(=O)c4cc(NC(=O)[C@H](N)CCCCN)ccc4OC)ccc3OC)ccc2OC)cc1C(N)=O	unfractionated heparin (UFH)	3.91
COc1ccc(NC(=O)[C@H](CCCCN)NC(=O)c2cc(NC(=O)[C@H](CCCCN)NC(=O)c3cc(NC(=O)[C@H](CCCCN)NC(=O)c4cc(NC(=O)[C@H](CCCCN)NC(C)=O)ccc4OC)ccc3OC)ccc2OC)cc1C(N)=O	unfractionated heparin (UFH)	2.28

Please examine the following record next.
Asked: So what's the measured UFH (aPTT) EC50 for this one? COc1ccc(NC(=O)[C@@H](CCCNC(=N)N)NC(=O)c2cc(NC(=O)[C@@H](CCCNC(=N)N)NC(=O)c3cc(NC(=O)[C@@H](CCCNC(=N)N)NC(=O)c4cc(NC(=O)[C@@H](CCCNC(=N)N)NC(=O)CCCCNC(=N)N)ccc4OC)ccc3OC)ccc2OC)cc1C(N)=O
Given back: 2.37

---

System: isolated human erythrocytes
method notes: cells
Format: cell-based
test conditions: Homo sapiens, Erythrocyte, 1 h, read-out: Hemolysis EC50
The following compounds are shown together with reported EC50 values.

smiles	result
COc1ccc(NC(=O)[C@H](CCCCN)NC(=O)c2cc(NC(=O)[C@H](CCCCN)NC(=O)c3cc(NC(=O)[C@H](CCCCN)NC(=O)c4cc(NC(=O)[C@H](CCCCN)NC(=O)Cc5ccccc5)ccc4OC)ccc3OC)ccc2OC)cc1C(N)=O	> 1000 µg/mL

Please examine the following record next.
Asked: So what's the measured EC50 for this one? COc1ccc(NC(=O)[C@H](CCCCN)NC(=O)c2cc(NC(=O)[C@H](CCCCN)NC(=O)c3cc(NC(=O)[C@H](CCCCN)NC(=O)c4cc(NC(=O)[C@H](CCCCN)NC(=O)Cc5ccccc5)ccc4OC)ccc3OC)ccc2OCC(=O)O)cc1C(N)=O
Given back: > 1000 µg/mL

---

Test system: unfractionated heparin (UFH)
method notes: aPTT clotting assay, UFH 0.2 U/mL in plasma (Example 7)
Type: biochemical
test conditions: UFH 0.2 U/mL in plasma
readout type: UFH (aPTT) EC50 (µg/mL)
Your answer should be a plain number; it is taken to be in µg/mL.

compound	tested system	unit info	numeric value
N=C(N)NCCCCC(=O)Nc1cc(C(F)(F)F)cc(NC(=O)c2cc(C(=O)Nc3cc(C(F)(F)F)cc(NC(=O)CCCCNC(=N)N)c3SCCN)ncn2)c1SCCN [Compound 6]	unfractionated heparin (UFH)	µg/mL	29.11
COc1ccc(NC(=O)[C@@H](CCCCN)NC(=O)c2cc(NC(=O)[C@@H](CCCNC(=N)N)NC(=O)c3cc(NC(=O)[C@@H](CCCCN)NC(=O)c4cc(NC(=O)[C@H](N)CCCNC(=N)N)ccc4OC)ccc3OC)ccc2OC)cc1C(N)=O [Compound 43]	unfractionated heparin (UFH)	µg/mL	2.33
COc1ccc(NC(=O)[C@H](C)NC(=O)c2cc(NC(=O)[C@H](CCCCN)NC(=O)c3cc(NC(=O)[C@H](CCCCN)NC(=O)c4cc(NC(=O)[C@@H](N)CCCCN)ccc4OC)ccc3OC)ccc2OC)cc1C(N)=O [Compound 94]	unfractionated heparin (UFH)	µg/mL	4.94

Asked: So what's the measured UFH (aPTT) EC50 for this one? COc1ccc(NC(=O)[C@@H](CCCNC(=N)N)NC(=O)c2cc(NC(=O)[C@@H](CCCNC(=N)N)NC(=O)c3cccc(NC(=O)[C@@H](CCCNC(=N)N)NC(=O)c4cc(NC(=O)[C@H](N)CCCNC(=N)N)ccc4OC)c3)ccc2OC)cc1C(N)=O [Compound 69]
Given back: 1.58
